Measured MST by item
- Test system: Plasmodium berghei
- assay_procedure: Antimalarial effect against trophozoite-induced Plasmodium berghei in mice (Mus musculus) at 80 mg/kg subcutaneous dose
- Format: functional
endpoint_name: MST

[[record]]
compound = "CCN(CC)CCNc1nc(Nc2ccc(N3CCN(C)CC3)cc2)nc2ccccc12"
measured_result = "3.4 days"

[[record]]
compound = "CCNCc1cc(Nc2nc(NC3CCC(N(C)C)CC3)c3ccccc3n2)ccc1OC (stereo unspecified)"
measured_result = "2.7 days"

[[record]]
compound = "CCN(CC)CCNc1nc(Nc2ccc(Cl)c(Cl)c2)nc2cc([N+](=O)[O-])ccc12"
measured_result = "0.9 days"

[[record]]
compound = "CCN1CCCC(Nc2nc(Nc3ccc(C(F)(F)F)cc3)c3ccccc3n2)C1 (stereo unspecified)"
measured_result = "-0.1 days"

[[record]]
compound = "CCN(CC)C1CCCC(Nc2nc(Nc3ccc(Cl)c(Cl)c3)nc3ccccc23)C1 (stereo unspecified)"
measured_result = "8 days"

[[record]]
compound = "CN1CCCC1CCNc1nc(Nc2ccc(C(F)(F)F)cc2)c2ccccc2n1 (stereo unspecified)"
measured_result = "0.5 days"

[[record]]
compound = "CCN1CCCC(Nc2nc(Nc3ccc(Cl)cc3)nc3ccccc23)C1 (stereo unspecified)"
measured_result = "3 days"

[[record]]
compound = "CCN(CC)C1CCC(Nc2nc(Nc3cc(Br)cc(Br)c3)nc3ccccc23)CC1 (stereo unspecified)"
measured_result = "4.3 days"

[[record]]
compound = "CN1CCCC1CCNc1nc(Nc2cccc(Br)c2)nc2ccccc12 (stereo unspecified)"
measured_result = "7.8 days"

[[record]]
compound = "CCOc1ccc(Nc2nc(NCCN(CC)CC)c3cc(Cl)ccc3n2)cc1CN(CC)CC"
measured_result = "3.2 days"

[[record]]
compound = "CCN(CC)CCCNc1nc(Nc2cc(Cl)cc(Cl)c2)c2ccccc2n1"
measured_result = "1.4 days"

[[record]]
compound = "CCN(CC)CCNc1nc(Nc2ccc(Cl)cc2)nc2ccccc12"
measured_result = "6.2 days"

[[record]]
compound = "CCN(CC)CCCNc1nc(Nc2ccc(C(F)(F)F)cc2)c2ccccc2n1"
measured_result = "0.8 days"

[[record]]
compound = "CCN(CC)CCNc1nc(Nc2ccc(OC)c(CN(CC)CC)c2)nc2ccccc12"
measured_result = "5.6 days"

[[record]]
compound = "Clc1ccc(Nc2nc(NCCN3CCCC3)c3ccccc3n2)cc1Cl"
measured_result = "3.1 days"

[[record]]
compound = "CCOc1ccc(Nc2nc(NCCN(CC)CC)c3cc(Cl)ccc3n2)cc1CN1CCCC1"
measured_result = "1 days"

[[record]]
compound = "CCN1CCCC(Nc2nc(Nc3cc(Cl)cc(Cl)c3)nc3ccc(Cl)cc23)C1 (stereo unspecified)"
measured_result = "0.6 days"

[[record]]
compound = "CN1CCCC1CCNc1nc(Nc2ccc(Cl)cc2)nc2ccccc12 (stereo unspecified)"
measured_result = "4.4 days"

[[record]]
compound = "FC(F)(F)c1ccc(Nc2nc(NCCCN3CCCC3)c3cc(Cl)ccc3n2)cc1"
measured_result = "1.6 days"

[[record]]
compound = "CCN(CC)C1CCC(Nc2nc(Nc3ccc(Cl)c(Cl)c3)nc3ccc(Cl)cc23)CC1 (stereo unspecified)"
measured_result = "14.9 days"

[[record]]
compound = "CCN(CC)CCNc1nc(Nc2ccc(C(F)(F)F)cc2)nc2ccccc12"
measured_result = "7.3 days"

[[record]]
compound = "OC1CCCN(CCCNc2nc(Nc3ccc(Cl)cc3)nc3ccccc23)C1 (stereo unspecified)"
measured_result = "4.6 days"

[[record]]
compound = "CCN(CC)CCNc1nc(Nc2ccc(Cl)c(Cl)c2)nc2ccc(NCc3ccc(Cl)c(Cl)c3)cc12"
measured_result = "0.4 days"

[[record]]
compound = "CCN(CC)CCCC(C)Nc1nc(Nc2cc(Cl)cc(Cl)c2)c2ccccc2n1 (stereo unspecified)"
measured_result = "-0.1 days"

[[record]]
compound = "CN1CCCC1CCNc1nc(Nc2ccc(Cl)c(Cl)c2)nc2ccccc12 (stereo unspecified)"
measured_result = "8 days"

[[record]]
compound = "CCN(CC)CCNc1nc(Nc2cc(Cl)cc(Cl)c2)nc2ccccc12"
measured_result = "3.2 days"


----------
- Test system: Plasmodium berghei
- assay_procedure: Antimalarial effect against trophozoite-induced Plasmodium berghei in mice (Mus musculus) after 40 mg/kg subcutaneous dose
- Type: functional
endpoint_name: MST (days)

[[record]]
compound = "CCN(CC)C1CCC(Nc2nc(Nc3ccc(Cl)c(Cl)c3)c3ccccc3n2)CC1 (stereo unspecified)"
measured_result = 0.5

[[record]]
compound = "CCOc1ccc(Nc2nc(NCCN(CC)CC)c3ccc(Cl)cc3n2)cc1CN(CC)CC"
measured_result = 0.6

[[record]]
compound = "CCNCc1cc(Nc2nc(NC3CCC(N(C)C)CC3)c3ccccc3n2)ccc1OC (stereo unspecified)"
measured_result = 0.5

[[record]]
compound = "Clc1cc(Cl)cc(Nc2nc(NCCCN3CCCCC3)nc3ccccc23)c1"
measured_result = 0.2

[[record]]
compound = "CCN(CC)C1CCC(Nc2nc(Nc3ccc(C(F)(F)F)cc3)c3ccccc3n2)CC1 (stereo unspecified)"
measured_result = 0.5

[[record]]
compound = "CN1CCCC1CCNc1nc(Nc2ccc(C(F)(F)F)cc2)c2ccccc2n1 (stereo unspecified)"
measured_result = 0.3

[[record]]
compound = "CCN(CC)C1CCC(Nc2nc(Nc3ccc(SC)cc3)c3ccccc3n2)CC1 (stereo unspecified)"
measured_result = 0.7

[[record]]
compound = "CN1CCCC1CCNc1nc(Nc2ccc(C(F)(F)F)cc2)nc2ccccc12 (stereo unspecified)"
measured_result = 1.2

[[record]]
compound = "CCN1CCC(CNc2nc(Nc3ccc(C(F)(F)F)cc3)c3ccccc3n2)CC1"
measured_result = 0.5

[[record]]
compound = "C=C[C@H]1CN2CC[C@H]1C[C@H]2[C@H](O)c1ccnc2ccc(OC)cc12 [QUININE]"
measured_result = 1

[[record]]
compound = "Clc1ccc(Nc2nc(NCCCN3CCCC3)c3ccccc3n2)cc1Cl"
measured_result = 5.2

[[record]]
compound = "CSc1ccc(Nc2nc(NCCCN3CCCC3)c3ccccc3n2)cc1"
measured_result = 1

[[record]]
compound = "CCN1CCCC(Nc2nc(Nc3cc(Cl)cc(Cl)c3)nc3ccc(Cl)cc23)C1 (stereo unspecified)"
measured_result = 0.2

[[record]]
compound = "c1ccc2c(NCCCN3CCCC3)nc(Nc3nccs3)nc2c1"
measured_result = 0.3

[[record]]
compound = "Clc1cc(Cl)cc(Nc2nc(NCCCN3CCCC3)nc3ccccc23)c1"
measured_result = 0.4

[[record]]
compound = "CCN1CCC(CNc2nc(Nc3ccc(Cl)c(Cl)c3)c3ccccc3n2)CC1"
measured_result = 2.1

[[record]]
compound = "CCN(CC)CCNc1nc(Nc2ccc(Cl)c(Cl)c2)nc2ccccc12"
measured_result = 1

[[record]]
compound = "FC(F)(F)c1cc(Nc2nc(NCCN3CCCC3)c3ccccc3n2)cc(C(F)(F)F)c1"
measured_result = 0.2

[[record]]
compound = "c1ccc2c(NCCCN3CCCC3)nc(Nc3ccncc3)nc2c1"
measured_result = 0.3

[[record]]
compound = "OC1CCCN(CCCNc2nc(Nc3cccc4nsnc34)nc3ccccc23)C1 (stereo unspecified)"
measured_result = 0

[[record]]
compound = "CCN(CC)CCNc1nc(NCc2ccc(Cl)c(Cl)c2)nc2ccccc12"
measured_result = 0.7


----------
- Test system: Plasmodium berghei
- assay_procedure: Antimalarial effect against trophozoite-induced Plasmodium berghei in mice (Mus musculus) at 160 mg/kg subcutaneous dose
- Assay type: functional
Ranges used to classify MST: low (below 0.6 days), intermediate (0.6 days to below 7 days), high (7 days or more)

[[record]]
compound = "CCN(CC)CCNc1nc(Nc2ccc(OC)c(CN(CC)CC)c2)nc2ccccc12"
test_system = "Plasmodium berghei"
class = "high"

[[record]]
compound = "CCN1CCCC(Nc2nc(Nc3ccc(Cl)c(Cl)c3)nc3ccc(Cl)cc23)C1 (stereo not given)"
test_system = "Plasmodium berghei"
class = "low"

[[record]]
compound = "Clc1cc(Cl)cc(Nc2nc(NCCCN3CCCCC3)nc3ccccc23)c1"
test_system = "Plasmodium berghei"
class = "low"

[[record]]
compound = "CCN1CCCC(Nc2nc(Nc3cc(Cl)cc(Cl)c3)nc3ccc(Cl)cc23)C1 (stereo not given)"
test_system = "Plasmodium berghei"
class = "intermediate"

[[record]]
compound = "CCOc1ccc(Nc2nc(NCCN(CC)CC)c3ccc(Cl)cc3n2)cc1CN(CC)CC"
test_system = "Plasmodium berghei"
class = "intermediate"

[[record]]
compound = "CN(C)C1CCC(Nc2nc(Nc3ccc(Cl)c(Cl)c3)nc3ccccc23)CC1 (stereo in doubt; 22)"
test_system = "Plasmodium berghei"
class = "high"

[[record]]
compound = "CCN(CC)C1CCC(Nc2nc(Nc3ccc(SC)cc3)c3ccccc3n2)CC1 (stereo not given)"
test_system = "Plasmodium berghei"
class = "intermediate"

[[record]]
compound = "OC1CCCN(CCCNc2nc(Nc3nc(-c4ccccc4)cs3)nc3ccccc23)C1 (stereo not given)"
test_system = "Plasmodium berghei"
class = "low"

[[record]]
compound = "CCN(CC)Cc1cc(Nc2nc(NCCN3CCCC3)c3ccccc3n2)ccc1O"
test_system = "Plasmodium berghei"
class = "high"

[[record]]
compound = "CN(C)C1CCC(Nc2nc(Nc3cccc(Br)c3)c3ccccc3n2)CC1 (stereo not given)"
test_system = "Plasmodium berghei"
class = "intermediate"

[[record]]
compound = "CCN1CCC(CNc2nc(Nc3ccc(C(F)(F)F)cc3)c3ccccc3n2)CC1"
test_system = "Plasmodium berghei"
class = "high"

[[record]]
compound = "CCN(CC)CCNc1nc(Nc2cc(Cl)c(Cl)cc2Cl)nc2ccccc12"
test_system = "Plasmodium berghei"
class = "low"

[[record]]
compound = "FC(F)(F)c1cc(Nc2nc(NCCN3CCCC3)c3ccccc3n2)cc(C(F)(F)F)c1"
test_system = "Plasmodium berghei"
class = "low"

[[record]]
compound = "CCN(CC)CCNc1nc(Nc2ccc(Cl)c(Cl)c2)c2ccccc2n1"
test_system = "Plasmodium berghei"
class = "intermediate"

[[record]]
compound = "Clc1ccc(Nc2nc(NCCN3CCCC3)c3ccccc3n2)cc1"
test_system = "Plasmodium berghei"
class = "intermediate"

[[record]]
compound = "OC1CCCN(CCCNc2nc(Nc3cccc4nsnc34)nc3ccccc23)C1 (stereo not given)"
test_system = "Plasmodium berghei"
class = "low"

[[record]]
compound = "CCN(CC)CCNc1nc(Nc2ccc(C(F)(F)F)cc2)nc2ccccc12"
test_system = "Plasmodium berghei"
class = "high"

[[record]]
compound = "Clc1cc(Cl)cc(Nc2nc(NCCCN3CCCC3)nc3ccccc23)c1"
test_system = "Plasmodium berghei"
class = "intermediate"

[[record]]
compound = "FC(F)(F)c1ccc(Nc2nc(NCCCN3CCCCC3)nc3ccccc23)cc1"
test_system = "Plasmodium berghei"
class = "low"

[[record]]
compound = "CCN(CC)CCCC(C)Nc1nc(Nc2ccc(C(F)(F)F)cc2)c2ccccc2n1 (stereo not given)"
test_system = "Plasmodium berghei"
class = "low"

[[record]]
compound = "CCN1CCCC(Nc2nc(Nc3cc(Cl)cc(Cl)c3)nc3cc(Cl)ccc23)C1 (stereo not given)"
test_system = "Plasmodium berghei"
class = "low"

[[record]]
compound = "CN(C)C1CCC(Nc2nc(Nc3ccc(C(F)(F)F)cc3)c3ccccc3n2)CC1 (stereo not given)"
test_system = "Plasmodium berghei"
class = "intermediate"

[[record]]
compound = "CCN(CC)C1CCC(Nc2nc(Nc3ccc(I)cc3)c3ccccc3n2)CC1 (stereo not given)"
test_system = "Plasmodium berghei"
class = "high"

[[record]]
compound = "C=C[C@H]1CN2CC[C@H]1C[C@H]2[C@H](O)c1ccnc2ccc(OC)cc12 [QUININE]"
test_system = "Plasmodium berghei"
class = "intermediate"

[[record]]
compound = "CCN1CCCC(Nc2nc(Nc3ccc(Cl)c(Cl)c3)nc3c(Cl)cc(Cl)cc23)C1 (stereo not given)"
test_system = "Plasmodium berghei"
class = "low"

[[record]]
compound = "CN1CCCC1CCNc1nc(Nc2ccc(C(F)(F)F)cc2)nc2ccccc12 (stereo not given)"
test_system = "Plasmodium berghei"
class = "high"

[[record]]
compound = "CN(C)C1CCC(Nc2nc(Nc3cc(Cl)cc(Cl)c3)c3ccccc3n2)CC1 (stereo not given)"
test_system = "Plasmodium berghei"
class = "intermediate"

[[record]]
compound = "CN(C)C1CCC(Nc2nc(Nc3ccc(Cl)c(Cl)c3)c3ccccc3n2)CC1 (stereo not given)"
test_system = "Plasmodium berghei"
class = "high"

[[record]]
compound = "c1ccc2c(NCCCN3CCCC3)nc(Nc3nccs3)nc2c1"
test_system = "Plasmodium berghei"
class = "low"

[[record]]
compound = "CCN(CC)CCNc1nc(Nc2ccc(Cl)cc2)nc2ccccc12"
test_system = "Plasmodium berghei"
class = "high"

[[record]]
compound = "CCNCc1cc(Nc2nc(NC3CCC(N(C)C)CC3)c3ccccc3n2)ccc1OC (stereo not given)"
test_system = "Plasmodium berghei"
class = "intermediate"

[[record]]
compound = "CCN(CC)CCNc1nc(Nc2ccc(Cl)c(Cl)c2)nc2ccc(NCc3ccc(Cl)c(Cl)c3)cc12"
test_system = "Plasmodium berghei"
class = "intermediate"

